target: human TLR8 (Homo sapiens (Human)); test: TLR8 inhibition reporter assay (HEK-Blue cells, SEAP reporter, R848 stimulation); settings: read-out: TLR8 IC50, HEK-Blue cells overexpressing human TLR8, R848 15.9 μM
Sequence (Q9NR97 27-1041): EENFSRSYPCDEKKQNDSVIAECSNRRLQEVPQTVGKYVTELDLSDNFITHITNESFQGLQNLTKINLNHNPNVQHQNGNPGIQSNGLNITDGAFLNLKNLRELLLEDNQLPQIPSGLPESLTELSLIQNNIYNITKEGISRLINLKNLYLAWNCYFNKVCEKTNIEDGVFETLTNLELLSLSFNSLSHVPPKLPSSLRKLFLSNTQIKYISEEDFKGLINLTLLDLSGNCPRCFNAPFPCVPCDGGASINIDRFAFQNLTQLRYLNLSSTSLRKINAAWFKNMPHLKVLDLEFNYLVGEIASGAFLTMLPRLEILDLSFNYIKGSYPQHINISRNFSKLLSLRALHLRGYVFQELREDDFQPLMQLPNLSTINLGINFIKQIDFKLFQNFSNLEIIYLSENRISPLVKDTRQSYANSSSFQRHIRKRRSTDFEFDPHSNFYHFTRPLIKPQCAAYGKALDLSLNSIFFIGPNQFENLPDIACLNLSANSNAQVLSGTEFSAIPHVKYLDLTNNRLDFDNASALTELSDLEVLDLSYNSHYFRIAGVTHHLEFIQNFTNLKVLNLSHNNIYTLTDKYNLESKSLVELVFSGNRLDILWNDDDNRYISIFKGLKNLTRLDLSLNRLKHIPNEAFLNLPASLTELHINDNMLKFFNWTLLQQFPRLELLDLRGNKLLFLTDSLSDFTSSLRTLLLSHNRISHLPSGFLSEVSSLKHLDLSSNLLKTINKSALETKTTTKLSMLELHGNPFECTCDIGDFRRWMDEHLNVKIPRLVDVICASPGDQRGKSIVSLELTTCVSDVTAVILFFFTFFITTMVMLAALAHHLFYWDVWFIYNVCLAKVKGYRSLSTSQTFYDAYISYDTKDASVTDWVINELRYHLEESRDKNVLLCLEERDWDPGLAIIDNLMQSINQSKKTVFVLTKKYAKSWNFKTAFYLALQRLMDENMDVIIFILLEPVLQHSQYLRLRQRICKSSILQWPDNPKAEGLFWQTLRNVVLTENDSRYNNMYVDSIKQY
pIC50: −log10 of the molar value.
Property measured: pIC50

INSERT INTO results (molecule, recorded_result) VALUES
  ('Cc1cc(-c2[nH]c3ccc(C4CCN(C(=O)CN(C)CC(O)c5ccccc5)CC4)cc3c2C(C)C)cc(C)n1 (stereo not shown)', 7.17),
  ('Cc1cc(-c2[nH]c3ccc(C4CCN(C(=O)CN5C(C)CCC5C)CC4)cc3c2C(C)C)cc(C)n1 (stereo not shown)', 7.68),
  ('Cc1cc(-c2[nH]c3ccc(C4CCN(CCC#N)CC4)cc3c2C(C)C)cc(C)n1', 8.05),
  ('Cc1cc(-c2[nH]c3ccc(C4CCN(S(=O)(=O)CC(F)(F)F)CC4)cc3c2C(C)C)ccn1', 6.09),
  ('Cc1cc(-c2[nH]c3ccc(C4CCN(CC5CCCC5)CC4)cc3c2C(C)C)cc(C)n1', 7.45),
  ('Cc1cc(-c2[nH]c3ccc(C4CCN(Cc5c[nH]cn5)CC4)cc3c2CC(F)F)cc(C)n1', 7.27),
  ('Cc1cc(-c2[nH]c3ccc(C4CCN(C(=O)CC(=O)Nc5nccs5)CC4)cc3c2C(C)C)cc(C)n1', 7.02),
  ('CC(C)c1c(-c2ccnc(Cl)c2F)[nH]c2ccc(C3CCNCC3)cc12', 8.40),
  ('CCCN(CCO)C(=O)CN1CCC(c2ccc3[nH]c(-c4cc(C)nc(C)c4)c(C(C)C)c3c2)CC1', 6.85),
  ('Cc1cc(-c2[nH]c3ccc(C4CCN(C(=O)C5CC(=O)N(C)C5)CC4)cc3c2CC(F)F)cc(C)n1 (stereo not shown)', 6.18),
  ('Cc1cc(-c2[nH]c3ccc(C4CCN(Cc5c[nH]cn5)CC4)cc3c2C(C)C)cc(C)n1', 8.60),
  ('Cc1nccc(-c2[nH]c3ccc(C4CCN(C5CCOCC5)CC4)cc3c2C(C)C)c1C', 7.13),
  ('COc1cc(-c2[nH]c3ccc(C4CCN(C5CCOCC5)CC4)cc3c2C(C)C)ccn1', 7.08);

----------
molecular target: human TLR8 (Homo sapiens (Human)); assay: TLR8 inhibition reporter assay (HEK-Blue cells, SEAP reporter, R848 stimulation); conditions: read-out: TLR8 IC50, HEK-Blue cells overexpressing human TLR8, R848 15.9 μM;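 also: compounds tested from 0.05 nM to 50 µM, 22 h at 37 °C, SEAP measured with HEK-Blue Detection, inhibition relative to agonist plus DMSO versus a known inhibitor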
pIC50: −log10 of the molar value.
Property measured: pIC50

INSERT INTO measurements (molecule, property_measured, recorded_result) VALUES
  ('Cc1cc(-c2[nH]c3ccc(C4CCN(CC(=O)N5CCC[C@H]5CO)CC4)cc3c2C(C)C)cc(C)n1 [Example 274]', 'pIC50', 8.04),
  ('Cc1cc(-c2[nH]c3ccc(C4CCN(CC(=O)N5CCC[C@@H](O)C5)CC4)cc3c2C(C)C)cc(C)n1 [Example 209]', 'pIC50', 7.89),
  ('COCCOCCN1CCC(c2ccc3[nH]c(-c4cc(C)nc(C)c4)c(C(C)C)c3c2)CC1 [Example 324]', 'pIC50', 8.36),
  ('Cc1cc(-c2[nH]c3ccc(C4CCN(CC(=O)N5CC(F)(F)C5)CC4)cc3c2C(C)C)cc(C)n1 [Example 215]', 'pIC50', 8.22);
